- Tested on: Aspergillus fumigatus
- experimentalProtocol: Antifungal activity against Aspergillus fumigatus NCIM 902 by serial plate dilution method
- Format: functional
endpointLabel: MIC (mg/L)

> print(dat)
                               smilesstring  unitslabel  measurement
1  FC(F)(F)c1cccc2c(N3CCOCC3)c(-c3nnc(S)n3Cc3ccccc3)cnc12        mg/L         12.5
2  FC(F)(F)c1cccc2c(NC3CCCCC3)c(-c3nnc(S)n3-c3ccccc3)cnc12        mg/L         6.25
3  FC(F)(F)c1cccc2c(NC3CCCCC3)c(-c3nnc(S)n3Cc3ccccc3)cnc12        mg/L         12.5
4  FC(F)(F)c1cccc2c(N3CCN(C4CCCCC4)CC3)c(-c3nnc(S)n3Cc3ccccc3)cnc12        mg/L           50

* * *

- System: Klebsiella pneumoniae
- experimentalProtocol: Antibacterial activity against recultured Klebsiella pneumoniae after 16 to 18 hrs by serial plate dilution method
- Format: functional
endpointLabel: MIC (µg/mL)

> print(dat)
                                smilesstring  endpointlabel  measurement
 1  FC(F)(F)c1cccc2c(NC3CC3)c(-c3nnc(S)n3-c3ccccc3)cnc12            MIC         6.25
 2  FC(F)(F)c1cccc2c(NC3CCCCC3)c(-c3nnc(S)n3Cc3ccccc3)cnc12            MIC         12.5
 3  FC(F)(F)c1cccc2c(Cl)c(-c3nnc(S)n3-c3ccccc3)cnc12            MIC         6.25
 4  COCCn1c(S)nnc1-c1cnc2c(C(F)(F)F)cccc2c1NCCC(C)(C)C            MIC           50
 5  CC(C)(C)CCNc1c(-c2nnc(S)n2Cc2ccccc2)cnc2c(C(F)(F)F)cccc12            MIC         12.5
 6  COCCn1c(S)nnc1-c1cnc2c(C(F)(F)F)cccc2c1NC1CC1            MIC         6.25
 7  FC(F)(F)c1cccc2c(N3CCOCC3)c(-c3nnc(S)n3Cc3ccccc3)cnc12            MIC           50
 8  COCCn1c(S)nnc1-c1cnc2c(C(F)(F)F)cccc2c1O            MIC         6.25
 9  FC(F)(F)c1cccc2c(N3CCC(N4CCOCC4)CC3)c(-c3nnc(S)n3-c3ccccc3)cnc12            MIC         6.25
10  COCCn1c(S)nnc1-c1cnc2c(C(F)(F)F)cccc2c1N1CCOCC1            MIC         6.25

* * *

- Tested on: Trichophyton mentagrophytes
- experimentalProtocol: Antifungal activity against recultured Trichophyton mentagrophytes by serial plate dilution method
- Assay type: functional
# MIC values compiled below
endpointLabel: MIC

> print(dat)
                               smilesstring  endpointlabel  measurement
1  CCN1CCN(c2c(-c3nnc(S)n3CCOC)cnc3c(C(F)(F)F)cccc23)CC1            MIC   6.25 µg/mL
2  COCCn1c(S)nnc1-c1cnc2c(C(F)(F)F)cccc2c1NC1CC1            MIC   6.25 µg/mL
3  COCCn1c(S)nnc1-c1cnc2c(C(F)(F)F)cccc2c1NC1CCCCC1            MIC   6.25 µg/mL
4  Oc1c(-c2nnc(S)n2Cc2ccccc2)cnc2c(C(F)(F)F)cccc12            MIC     50 µg/mL
5  CC(C)(C)CCNc1c(-c2nnc(S)n2Cc2ccccc2)cnc2c(C(F)(F)F)cccc12            MIC   12.5 µg/mL

* * *

- System: Aspergillus fumigatus
- experimentalProtocol: Antifungal activity against Aspergillus fumigatus NCIM 902 by serial plate dilution method
- Type: functional
endpointLabel: MIC (µg/mL)

> print(dat)
                                smilesstring  endpointlabel  measurement
 1  CC(C)(C)CCNc1c(-c2nnc(S)n2-c2ccccc2)cnc2c(C(F)(F)F)cccc12            MIC         6.25
 2  COCCn1c(S)nnc1-c1cnc2c(C(F)(F)F)cccc2c1NC1CC1            MIC         6.25
 3  COCCn1c(S)nnc1-c1cnc2c(C(F)(F)F)cccc2c1N1CCC(CCCO)CC1            MIC           50
 4  CC(C)(C)CCNc1c(-c2nnc(S)n2Cc2ccccc2)cnc2c(C(F)(F)F)cccc12            MIC         12.5
 5  FC(F)(F)c1cccc2c(NC3CC3)c(-c3nnc(S)n3-c3ccccc3)cnc12            MIC         6.25
 6  COCCn1c(S)nnc1-c1cnc2c(C(F)(F)F)cccc2c1N1CCN(C2CCCCC2)CC1            MIC           50
 7  OCCCC1CCN(c2c(-c3nnc(S)n3Cc3ccccc3)cnc3c(C(F)(F)F)cccc23)CC1            MIC         12.5
 8  Oc1c(-c2nnc(S)n2Cc2ccccc2)cnc2c(C(F)(F)F)cccc12            MIC           50
 9  FC(F)(F)c1cccc2c(N3CCC(N4CCOCC4)CC3)c(-c3nnc(S)n3-c3ccccc3)cnc12            MIC         6.25
10  FC(F)(F)c1cccc2c(N3CCOCC3)c(-c3nnc(S)n3-c3ccccc3)cnc12            MIC         6.25
11  NCCN1CCN(c2c(-c3nnc(S)n3Cc3ccccc3)cnc3c(C(F)(F)F)cccc23)CC1            MIC           50
12  COCCn1c(S)nnc1-c1cnc2c(C(F)(F)F)cccc2c1N1CCOCC1            MIC         6.25
13  COCCn1c(S)nnc1-c1cnc2c(C(F)(F)F)cccc2c1NC1CCCCC1            MIC         6.25
14  FC(F)(F)c1cccc2c(NC3CC3)c(-c3nnc(S)n3Cc3ccccc3)cnc12            MIC         6.25
15  Oc1c(-c2nnc(S)n2-c2ccccc2)cnc2c(C(F)(F)F)cccc12            MIC         6.25
16  FC(F)(F)c1cccc2c(Cl)c(-c3nnc(S)n3Cc3ccccc3)cnc12            MIC           50
17  CCN1CCN(c2c(-c3nnc(S)n3CCOC)cnc3c(C(F)(F)F)cccc23)CC1            MIC           50
18  FC(F)(F)c1cccc2c(Cl)c(-c3nnc(S)n3-c3ccccc3)cnc12            MIC         6.25
19  COCCn1c(S)nnc1-c1cnc2c(C(F)(F)F)cccc2c1O            MIC         6.25
20  OCCCC1CCN(c2c(-c3nnc(S)n3-c3ccccc3)cnc3c(C(F)(F)F)cccc23)CC1            MIC           50

* * *

- Test system: Klebsiella pneumoniae
- experimentalProtocol: Antibacterial activity against recultured Klebsiella pneumoniae after 16 to 18 hrs by serial plate dilution method
- Assay type: functional
Measured MIC values are reported for all entries that follow.
endpointLabel: MIC (µg/mL)

> print(dat)
                               smilesstring  unitslabel  measurement
1  OCCCC1CCN(c2c(-c3nnc(S)n3Cc3ccccc3)cnc3c(C(F)(F)F)cccc23)CC1       µg/mL         12.5
2  FC(F)(F)c1cccc2c(Cl)c(-c3nnc(S)n3Cc3ccccc3)cnc12       µg/mL           50
3  CC(C)N1CCN(c2c(-c3nnc(S)n3-c3ccccc3)cnc3c(C(F)(F)F)cccc23)CC1       µg/mL           50
4  COCCn1c(S)nnc1-c1cnc2c(C(F)(F)F)cccc2c1NC1CCCCC1       µg/mL         6.25
5  COCCn1c(S)nnc1-c1cnc2c(C(F)(F)F)cccc2c1N1CCN(C2CCCCC2)CC1       µg/mL           50
6  FC(F)(F)c1cccc2c(N3CCN(C4CCCCC4)CC3)c(-c3nnc(S)n3-c3ccccc3)cnc12       µg/mL           50
7  FC(F)(F)c1cccc2c(N3CCOCC3)c(-c3nnc(S)n3-c3ccccc3)cnc12       µg/mL         6.25
8  OCCCC1CCN(c2c(-c3nnc(S)n3-c3ccccc3)cnc3c(C(F)(F)F)cccc23)CC1       µg/mL           50
9  COCCn1c(S)nnc1-c1cnc2c(C(F)(F)F)cccc2c1N1CCC(CCCO)CC1       µg/mL           50

* * *

- Test system: Trichophyton mentagrophytes
- experimentalProtocol: Antifungal activity against recultured Trichophyton mentagrophytes at MIC after 3 to 4 days by agar well diffusion method
- Format: functional
endpointLabel: inhibition zone (IZ) (mm)

> print(dat)
                                    compound  qualifiersymbol  measurement
 1  COCCn1c(S)nnc1-c1cnc2c(C(F)(F)F)cccc2c1N1CC(C)OC(C)C1 (centres undefined)                =           20
 2  OCCCC1CCN(c2c(-c3nnc(S)n3Cc3ccccc3)cnc3c(C(F)(F)F)cccc23)CC1                =           16
 3  FC(F)(F)c1cccc2c(N3CCN(C4CCCCC4)CC3)c(-c3nnc(S)n3-c3ccccc3)cnc12                <           10
 4  CC(C)(C)CCNc1c(-c2nnc(S)n2Cc2ccccc2)cnc2c(C(F)(F)F)cccc12                =           16
 5  FC(F)(F)c1cccc2c(NC3CCCCC3)c(-c3nnc(S)n3Cc3ccccc3)cnc12                =           16
 6  FC(F)(F)c1cccc2c(N3CCN(C4CCCCC4)CC3)c(-c3nnc(S)n3Cc3ccccc3)cnc12                <           10
 7  COCCn1c(S)nnc1-c1cnc2c(C(F)(F)F)cccc2c1O                =           20
 8  FC(F)(F)c1cccc2c(N3CCOCC3)c(-c3nnc(S)n3Cc3ccccc3)cnc12                =           16
 9  CC(C)N1CCN(c2c(-c3nnc(S)n3-c3ccccc3)cnc3c(C(F)(F)F)cccc23)CC1                <           10
10  COCCn1c(S)nnc1-c1cnc2c(C(F)(F)F)cccc2c1N1CCC(CCCO)CC1                <           10
11  COCCn1c(S)nnc1-c1cnc2c(C(F)(F)F)cccc2c1N1CCN(C2CCCCC2)CC1                =           20
12  COCCn1c(S)nnc1-c1cnc2c(C(F)(F)F)cccc2c1Cl                =           10
13  FC(F)(F)c1cccc2c(N3CCOCC3)c(-c3nnc(S)n3-c3ccccc3)cnc12                =           20
14  COCCn1c(S)nnc1-c1cnc2c(C(F)(F)F)cccc2c1NC1CCCCC1                =           20
15  FC(F)(F)c1cccc2c(N3CCC(N4CCOCC4)CC3)c(-c3nnc(S)n3-c3ccccc3)cnc12                =           20
16  FC(F)(F)c1cccc2c(NC3CC3)c(-c3nnc(S)n3-c3ccccc3)cnc12                =           20
17  COCCn1c(S)nnc1-c1cnc2c(C(F)(F)F)cccc2c1N1CCOCC1                =           20
18  OCCCC1CCN(c2c(-c3nnc(S)n3-c3ccccc3)cnc3c(C(F)(F)F)cccc23)CC1                <           10
19  NCCN1CCN(c2c(-c3nnc(S)n3Cc3ccccc3)cnc3c(C(F)(F)F)cccc23)CC1                <           10
20  FC(F)(F)c1cccc2c(Cl)c(-c3nnc(S)n3Cc3ccccc3)cnc12                <           10
21  CCN1CCN(c2c(-c3nnc(S)n3CCOC)cnc3c(C(F)(F)F)cccc23)CC1                =           20
22  FC(F)(F)c1cccc2c(Cl)c(-c3nnc(S)n3-c3ccccc3)cnc12                =           20
23  FC(F)(F)c1cccc2c(NC3CCCCC3)c(-c3nnc(S)n3-c3ccccc3)cnc12                =           20
24  COCCn1c(S)nnc1-c1cnc2c(C(F)(F)F)cccc2c1NC1CC1                =           20
25  Oc1c(-c2nnc(S)n2-c2ccccc2)cnc2c(C(F)(F)F)cccc12                =           20
26  Oc1c(-c2nnc(S)n2Cc2ccccc2)cnc2c(C(F)(F)F)cccc12                <           10
27  COCCn1c(S)nnc1-c1cnc2c(C(F)(F)F)cccc2c1NCCC(C)(C)C                =           20
28  FC(F)(F)c1cccc2c(NC3CC3)c(-c3nnc(S)n3Cc3ccccc3)cnc12                =           20
29  CC(C)(C)CCNc1c(-c2nnc(S)n2-c2ccccc2)cnc2c(C(F)(F)F)cccc12                =           20
